Tested on: SK-MEL-5 melanoma
ASSAY_OVERVIEW: NCI tumour cell line growth inhibition, 48 h
Catalogue of TGI readings, one per entry.
REPORTED_ENDPOINT: TGI (µM)

[[record]]
compound = "Nc1c(C(=O)c2cccc(CCCN3CCOCC3)c2)cnn1-c1ccc(F)cc1"
reported_endpoint = "TGI"
unit_annotation = "µM"
measurement_qualifier = ">"
value = 25

[[record]]
compound = "CC(C)(C)c1cc(CC2C(=O)c3ccccc3C2=O)cc(C(C)(C)C)c1O"
reported_endpoint = "TGI"
unit_annotation = "µM"
measurement_qualifier = "="
value = 11.1

[[record]]
compound = "N/C(=N\\N=C/c1ccccc1O)NO"
reported_endpoint = "TGI"
unit_annotation = "µM"
measurement_qualifier = ">"
value = 100

[[record]]
compound = "COc1cc(C=O)ccc1Oc1nnnn1-c1ccccc1"
reported_endpoint = "TGI"
unit_annotation = "µM"
measurement_qualifier = "="
value = 59.2

[[record]]
compound = "COc1ccc(Oc2cccc(/C=C3/C(=O)Nc4ccccc43)c2)cc1"
reported_endpoint = "TGI"
unit_annotation = "µM"
measurement_qualifier = "="
value = 11.3

[[record]]
compound = "NCC(=O)NC1(c2cc3ccccc3s2)CCCCC1"
reported_endpoint = "TGI"
unit_annotation = "µM"
measurement_qualifier = "="
value = 33.2

[[record]]
compound = "CC(NS(=O)(=O)c1ccc([N+](=O)[O-])cc1)C(=O)O (stereo unspecified)"
reported_endpoint = "TGI"
unit_annotation = "µM"
measurement_qualifier = ">"
value = 100

[[record]]
compound = "Cn1cc(-c2ccc3c(Nc4cccc(NC(=O)Nc5cccc(F)c5)c4)ncnc3c2)cn1"
reported_endpoint = "TGI"
unit_annotation = "µM"
measurement_qualifier = "="
value = 2.94

[[record]]
compound = "COC(=O)[C@@]12C(=O)C=CC(=O)[C@@H]1C1C(=CC2COC(C)=O)O[C@@H]2OC3(CCCCC3)O[C@H]12 (stereo partly specified)"
reported_endpoint = "TGI"
unit_annotation = "µM"
measurement_qualifier = "="
value = 32.5

[[record]]
compound = "O=C(O)CCNc1ccccc1C(=O)O"
reported_endpoint = "TGI"
unit_annotation = "µM"
measurement_qualifier = ">"
value = 100

[[record]]
compound = "CC(=O)ON(C(C)=O)c1ccc(-c2nc3ccccc3s2)cc1"
reported_endpoint = "TGI"
unit_annotation = "µM"
measurement_qualifier = "="
value = 89.9

[[record]]
compound = "Cc1nc(-c2cccc(Nc3nc(-c4ccc(Cl)cc4)cs3)c2)cs1"
reported_endpoint = "TGI"
unit_annotation = "µM"
measurement_qualifier = "="
value = 19.7

[[record]]
compound = "Oc1ccc(-c2csc(NNC3=NC/C(=C/c4ccc5c(c4)OCO5)S3)n2)cc1O"
reported_endpoint = "TGI"
unit_annotation = "µM"
measurement_qualifier = ">"
value = 100

[[record]]
compound = "COc1ccc(OC)c(/C=N/NC(=O)Cc2csc3nc(-c4ccc(Br)cc4)cn23)c1"
reported_endpoint = "TGI"
unit_annotation = "µM"
measurement_qualifier = "="
value = 42.5

[[record]]
compound = "CCCCON(OC(=O)c1ccccc1)C(=O)c1ccccc1"
reported_endpoint = "TGI"
unit_annotation = "µM"
measurement_qualifier = ">"
value = 100

[[record]]
compound = "COc1ccccc1/C=C(\\C#N)c1ccccc1"
reported_endpoint = "TGI"
unit_annotation = "µM"
measurement_qualifier = "="
value = 40.9


###

Catalogue of TGI readings, one per entry.
System: SW-620 colon
ASSAY_OVERVIEW: NCI tumour cell line growth inhibition, 48 h
Structures can show the parent of a compound that is named as a salt. Where a SMILES comes first, the peptide text is derived from it. The star is where a group is joined. Tfa = O=C(C(F)(F)F)*
REPORTED_ENDPOINT: TGI

[[record]]
molecule = "CC1(C)CC23C4COC(=O)C2CCC1C3CC4=O (stereo not drawn)"
study_system = "SW-620 colon"
reported_endpoint = "TGI"
value = "10.2 µM"

[[record]]
molecule = "N=C(N)c1ccc(OCc2cccc(COc3ccc(C(=N)N)cc3)c2)cc1"
study_system = "SW-620 colon"
reported_endpoint = "TGI"
value = "21.3 µM"

[[record]]
molecule = "O=P1(C(O)/C=C/c2ccccc2)N(Cc2ccccc2)[C@H](c2ccccc2)[C@@H](c2ccccc2)N1Cc1ccccc1 (stereo partly drawn)"
study_system = "SW-620 colon"
reported_endpoint = "TGI"
value = "> 100 µM"

[[record]]
molecule = "COc1ccc2[nH]c(=O)c3c4ccccc4cn3c2c1"
study_system = "SW-620 colon"
reported_endpoint = "TGI"
value = "1.39 µM"

[[record]]
molecule = "ON/N=C/c1cc2c(cc1Br)OCO2"
study_system = "SW-620 colon"
reported_endpoint = "TGI"
value = "> 386 µM"

[[record]]
molecule = "O=C(O)CC(NC(=O)C(F)(F)F)C(=O)NC(Cc1ccc(O)cc1)C(=O)O (stereo not drawn) (Tfa-Asp-Tyr-OH; configuration not given here)"
study_system = "SW-620 colon"
reported_endpoint = "TGI"
value = "> 50 µM"

[[record]]
molecule = "O=C1c2ccccc2-c2c1c1ccccc1c(=O)n2CCCCNCCCn1c2c(c3ccccc3c1=O)C(=O)c1ccccc1-2"
study_system = "SW-620 colon"
reported_endpoint = "TGI"
value = "0.528 µM"

[[record]]
molecule = "NC(=O)NNCc1ccccc1"
study_system = "SW-620 colon"
reported_endpoint = "TGI"
value = "> 100 µM"

[[record]]
molecule = "CC1CC(C)C(O)C(C2CC(CC(=O)NC3CCCCC3)CC(=O)O2)C1 (stereo not drawn)"
study_system = "SW-620 colon"
reported_endpoint = "TGI"
value = "> 100 µM"

[[record]]
molecule = "C=C(C)C(=O)O[C@H]1C/C(CO)=C/CCC(=C)C(OC(C)=O)[C@H]2OC(=O)C(=C)[C@H]12 (stereo partly drawn)"
study_system = "SW-620 colon"
reported_endpoint = "TGI"
value = "74.2 µM"

[[record]]
molecule = "CC(=O)N[C@@H](Cc1ccc(OP(=O)(O)O)cc1)C(=O)N[C@H]1CCC(=O)N2CCC[C@@H](C(=O)NCc3ccc(Cl)cc3)N2C1=O"
study_system = "SW-620 colon"
reported_endpoint = "TGI"
value = "> 25 µM"

[[record]]
molecule = "CCNC(C)Cc1ccccc1 (stereo not drawn)"
study_system = "SW-620 colon"
reported_endpoint = "TGI"
value = "> 100 µM"

[[record]]
molecule = "C=CCn1c(=O)c2ccccc2[n+]2c(C)c(C(=O)OCC)sc12"
study_system = "SW-620 colon"
reported_endpoint = "TGI"
value = "> 100 µM"


###

Catalogue of TGI readings, one per entry.
Test system: UACC-257 melanoma
ASSAY_OVERVIEW: NCI tumour cell line growth inhibition, 48 h
REPORTED_ENDPOINT: TGI (µM)

[[record]]
compound = "C/C=C/[C@H]1O[C@@](O)([C@@H](C)[C@H](O)[C@H](C)[C@H]2OC(=O)/C(OC)=C/C(C)=C/[C@@H](C)[C@@H](O)[C@@H](CC)[C@@H](O)[C@H](C)C/C(C)=C/C=C/[C@@H]2OC)C[C@H](OC2CC(O)C(O)C(C)O2)[C@@H]1C (stereo not given in full)"
measurement_qualifier = "<"
value = 0.0075

[[record]]
compound = "C/C(=N\\NC(=O)c1sc(=S)n(C)c1N)c1cc2ccccc2o1"
measurement_qualifier = "="
value = 33.4

[[record]]
compound = "CC1CC[C@]2(C(=O)O)CCC3(COC(=O)/C=C\\c4ccc(O)cc4)C(=CCC4[C@@]5(C)CC[C@H](O)C(C)(C)C5CC[C@]43C)[C@@H]2[C@H]1C (stereo not given in full)"
measurement_qualifier = "="
value = 69.6

[[record]]
compound = "C=CCN1CCC(OC(=O)C(O)(C#CC)C2CCCC2)CC1 (stereo not given)"
measurement_qualifier = ">"
value = 100

[[record]]
compound = "C=CC[n+]1c(/C=C/C=C2\\N(C)c3ccccc3C2(C)C)sc2ccc(OC)cc21"
measurement_qualifier = "="
value = 0.733

[[record]]
compound = "CN(C)c1ccc(/C=c2/c3ccccc3n3c2c2ccccc2[n+]3C)cc1"
measurement_qualifier = "="
value = 1.51

[[record]]
compound = "CC(C)(C)c1cc(C(=O)Nc2cc(Br)c(Br)cc2S(N)(=O)=O)cc(C(C)(C)C)c1O"
measurement_qualifier = "="
value = 33.1

[[record]]
compound = "COc1ccccc1/C=C/C1=NN(c2cccc(S(=O)(=O)O)c2)C2(C1)SCC(=O)N2c1nc2ccccc2s1 (stereo not given)"
measurement_qualifier = ">"
value = 100

[[record]]
compound = "CC1CC(C2=CC=CCS2)=Nc2ccccc2S1 (stereo not given)"
measurement_qualifier = ">"
value = 100

[[record]]
compound = "CC[C@]12CCCN3CCc4c(n(c5ccccc45)C(=O)C1)[C@@H]32"
measurement_qualifier = ">"
value = 100

